- System Tested: recombinant human 5-HT5A receptor (Homo sapiens, UniProt P47898)
- Construct: membranes
- Sequence (P47898 whole entry): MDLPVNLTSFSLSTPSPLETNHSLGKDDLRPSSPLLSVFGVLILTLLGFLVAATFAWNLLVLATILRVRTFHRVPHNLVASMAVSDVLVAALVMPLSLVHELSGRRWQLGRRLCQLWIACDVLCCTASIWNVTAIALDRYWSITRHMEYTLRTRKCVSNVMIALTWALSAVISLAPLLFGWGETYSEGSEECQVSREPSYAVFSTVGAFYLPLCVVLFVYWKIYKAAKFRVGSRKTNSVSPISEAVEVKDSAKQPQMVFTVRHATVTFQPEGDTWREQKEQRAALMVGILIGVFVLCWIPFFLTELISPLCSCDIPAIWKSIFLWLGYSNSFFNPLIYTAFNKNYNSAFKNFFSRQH
- Assay Summary: [3H]LSD radioligand binding assay, membranes of HEK-EBNA cells transiently expressing 5-HT5A receptors
- Experimental Context: [3H]LSD approx. 1 nM, SPA beads, 120 min at room temperature; Ki from IC50 by the Cheng-Prussoff equation
pKi: −log10 of the molar value.
Property: pKi

See these solved cases before continuing.
Data request, read-out pKi, for Fc1ccc(Nc2cccc3c2COC(N[C@@H]2CCc4ccccc42)=N3)cc1
8.52

Data request, read-out pKi, for O=C(Cc1ccc(Cl)cc1)Nc1cccc2c1COC(N[C@@H]1CCc3ccccc31)=N2
6.88

1 = Brc1cccc2c1COC(N[C@@H]1CCc3ccccc31)=N2
2 = O=S(=O)(Nc1cccc2c1COC(N[C@@H]1CCc3ccccc31)=N2)C1CC1
3 = COc1cccc2c1C(NC1=Nc3cccc(N)c3CO1)CO2 (centres unmarked)
Put these in order: smallest pKi first, largest last. Rank the items, then write their labels in that order.
1, 3, 2
(1: 6.97, 3: 7.57, 2: 8.70)
